// data source = ChEMBL document CHEMBL1150264

Test Target: Melanocyte-stimulating hormone receptor (Homo sapiens)
Sequence (Q01726 whole entry): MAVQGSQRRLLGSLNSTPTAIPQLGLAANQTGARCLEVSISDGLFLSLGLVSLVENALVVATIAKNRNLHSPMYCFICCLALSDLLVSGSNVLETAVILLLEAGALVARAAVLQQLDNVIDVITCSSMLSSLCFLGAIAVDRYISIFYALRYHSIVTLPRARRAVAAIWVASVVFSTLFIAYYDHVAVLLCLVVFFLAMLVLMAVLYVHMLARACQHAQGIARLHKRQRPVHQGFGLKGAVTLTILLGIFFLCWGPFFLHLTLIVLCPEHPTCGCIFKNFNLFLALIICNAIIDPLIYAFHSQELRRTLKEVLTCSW
Assay Procedure: Displacement of [125I]-[Nle4, D-Phe7]alpha-MSH from human melanocortin 1 receptor expressed in HEK293 cells
Type: cell-based
Parameter Measured: IC50 (nM)

NC(=O)[C@@H]1CSc2ccc([N+](=O)[O-])cc2C(=O)N[C@@H](Cc2cnc[nH]2)C(=O)N[C@H](Cc2ccccc2)C(=O)N[C@@H](CCCN=C(N)N)C(=O)N[C@@H](Cc2ccc3ccccc3c2)C(=O)N1; 180

[I] N=C(N)NCCC[C@@H]1NC(=O)[C@@H](Cc2ccccc2)NC(=O)[C@H](Cc2cnc[nH]2)NC(=O)c2cc([N+](=O)[O-])ccc2SC[C@@H](C(N)=O)NC(=O)[C@@H](Cc2c[nH]c3ccccc23)NC1=O
[II] NC(=O)[C@@H]1CSc2ccc([N+](=O)[O-])cc2C(=O)N[C@@H](Cc2cnc[nH]2)C(=O)N[C@H](Cc2ccccc2)C(=O)N[C@@H](CCCN=C(N)N)C(=O)N[C@@H](Cc2c[nH]c3ccccc23)C(=O)N1
Ask: Given I and given II , which shows the smaller recorded IC50? Response format: the label of the selected entry.
Result: II

---

Test Target: Melanocortin receptor 4 (Homo sapiens)
Sequence (P32245 whole entry): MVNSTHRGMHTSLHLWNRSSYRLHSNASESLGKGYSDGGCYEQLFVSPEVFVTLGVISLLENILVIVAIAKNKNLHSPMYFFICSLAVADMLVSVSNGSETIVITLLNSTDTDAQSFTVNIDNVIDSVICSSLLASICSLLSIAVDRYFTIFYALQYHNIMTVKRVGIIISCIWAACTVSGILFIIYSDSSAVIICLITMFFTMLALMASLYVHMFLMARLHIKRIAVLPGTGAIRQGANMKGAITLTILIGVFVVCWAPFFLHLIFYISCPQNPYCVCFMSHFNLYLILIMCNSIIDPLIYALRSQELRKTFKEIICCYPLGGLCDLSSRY
Assay Procedure: Agonist activity at human melanocortin 4 receptor expressed in HEK293 cells assessed as cAMP accumulation at 10 uM realtive to MT2
Type: functional, cell-based
Parameter Measured: Activity (%)

Example cases with answers are listed next.
N=C(N)NCCC[C@@H]1NC(=O)[C@@H](Cc2ccccc2)NC(=O)[C@H](Cc2cnc[nH]2)NC(=O)c2cc([N+](=O)[O-])ccc2SC[C@@H](C(N)=O)NC(=O)[C@@H](Cc2ccccc2)NC1=O; 0
N=C(N)NCCC[C@@H]1NC(=O)[C@@H](Cc2ccccc2)NC(=O)[C@H](Cc2cnc[nH]2)NC(=O)c2cc([N+](=O)[O-])ccc2SC[C@@H](C(N)=O)NC(=O)[C@H](Cc2ccccc2)NC1=O; 0
N=C(N)NCCC[C@@H]1NC(=O)[C@H](Cc2ccc(N)cc2)NC(=O)[C@H](Cc2cnc[nH]2)NC(=O)c2cc([N+](=O)[O-])ccc2SC[C@@H](C(N)=O)NC(=O)[C@H](Cc2c[nH]c3ccccc23)NC1=O; 0
N=C(N)NCCC[C@@H]1NC(=O)[C@@H](Cc2ccccc2)NC(=O)[C@@H]2CCCN2C(=O)c2cc([N+](=O)[O-])ccc2SC[C@@H](C(N)=O)NC(=O)[C@H](Cc2c[nH]c3ccccc23)NC1=O; 0
N=C(N)NCCC[C@@H]1NC(=O)[C@@H](Cc2ccc3ccccc3c2)NC(=O)[C@H](Cc2cnc[nH]2)NC(=O)c2cc([N+](=O)[O-])ccc2SC[C@@H](C(N)=O)NC(=O)[C@H](Cc2c[nH]c3ccccc23)NC1=O; 0

[a] N=C(N)NCCC[C@@H]1NC(=O)[C@@H](Cc2ccccc2)NC(=O)[C@H](CC2CCCCC2)NC(=O)c2cc([N+](=O)[O-])ccc2SC[C@@H](C(N)=O)NC(=O)[C@H](Cc2c[nH]c3ccccc23)NC1=O
[b] N=C(N)NCCC[C@@H]1NC(=O)[C@@H](Cc2ccccc2)NC(=O)[C@H](Cc2cnc[nH]2)NC(=O)c2cc([N+](=O)[O-])ccc2SC[C@@H](C(N)=O)NC(=O)[C@H](Cc2c[nH]c3ccccc23)NC1=O
[c] N=C(N)NCCC[C@@H]1NC(=O)[C@@H](Cc2ccccc2)NC(=O)[C@H](Cc2cnc[nH]2)NC(=O)c2cc([N+](=O)[O-])ccc2SC[C@@H](C(N)=O)NC(=O)[C@@H](Cc2c[nH]c3ccccc23)NC1=O
[d] N=C(N)NCCC[C@@H]1NC(=O)[C@@H](Cc2ccccc2)NC(=O)[C@H](Cc2cnc[nH]2)NC(=O)c2cc([N+](=O)[O-])ccc2SC[C@@H](C(N)=O)NC(=O)[C@H](Cc2ccc3ccccc3c2)NC1=O
Ask: Task field, ranking: reported Activity, descending order. // ordering of labels required in reply
Result: b, d, c, a
